Target system: HPK1 (Homo sapiens)
Sequence (Q92918 whole entry): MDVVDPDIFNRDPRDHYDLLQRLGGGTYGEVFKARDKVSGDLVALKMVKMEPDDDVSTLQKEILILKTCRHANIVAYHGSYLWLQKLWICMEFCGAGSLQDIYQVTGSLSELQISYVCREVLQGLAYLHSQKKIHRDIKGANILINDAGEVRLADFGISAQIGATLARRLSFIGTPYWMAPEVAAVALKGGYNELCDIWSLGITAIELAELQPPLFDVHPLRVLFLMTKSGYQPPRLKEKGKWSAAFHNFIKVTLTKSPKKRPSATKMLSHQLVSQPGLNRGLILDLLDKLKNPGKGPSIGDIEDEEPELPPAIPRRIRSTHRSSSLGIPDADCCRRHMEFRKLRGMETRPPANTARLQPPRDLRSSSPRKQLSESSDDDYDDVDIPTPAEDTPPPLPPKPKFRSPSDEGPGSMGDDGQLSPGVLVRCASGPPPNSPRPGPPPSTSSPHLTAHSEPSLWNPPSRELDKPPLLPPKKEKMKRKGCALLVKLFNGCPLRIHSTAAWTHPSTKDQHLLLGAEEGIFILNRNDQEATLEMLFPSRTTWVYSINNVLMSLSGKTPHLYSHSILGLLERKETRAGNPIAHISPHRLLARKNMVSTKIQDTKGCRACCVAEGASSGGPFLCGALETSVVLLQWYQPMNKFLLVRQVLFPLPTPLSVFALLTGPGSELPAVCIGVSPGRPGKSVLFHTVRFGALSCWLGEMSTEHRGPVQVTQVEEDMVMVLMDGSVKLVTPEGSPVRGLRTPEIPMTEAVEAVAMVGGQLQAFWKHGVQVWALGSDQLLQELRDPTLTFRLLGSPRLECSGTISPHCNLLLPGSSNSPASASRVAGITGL
pIC50: −log10 of the molar value.
Measured metric: pIC50

>>> print(df.to_string())
                  compound_structure_string  readout_number
0  COc1cccn2c(-c3cc4c(c5c3CNC5=O)Nc3ccc(N5CCOCC5)cc3C4(C)C)cnc12            8.05
1  COc1cccn2c(-c3cc4c(c5c3CCNC5=O)Nc3ccc(N5CCOCC5)cc3C4(C)C)cnc12            8.03

* * *

Protocol: in vitro
Design: species or system HepG2
Test context: mouse, ct26 cells
Measured metric: CC50 (µM)
State just the number; it will be interpreted in µM.

// CC50 lookup, key: CO[C@H]1CCCn2c(-c3cc4c(c5c3CNC5=O)Nc3ccc(N5CCOCC5)cc3C4(C)C)cnc21 7.8
